TARGET_SYSTEM: Sigma intracellular receptor 2 (Homo sapiens, UniProt Q5BJF2)
Sequence (Q5BJF2 whole entry): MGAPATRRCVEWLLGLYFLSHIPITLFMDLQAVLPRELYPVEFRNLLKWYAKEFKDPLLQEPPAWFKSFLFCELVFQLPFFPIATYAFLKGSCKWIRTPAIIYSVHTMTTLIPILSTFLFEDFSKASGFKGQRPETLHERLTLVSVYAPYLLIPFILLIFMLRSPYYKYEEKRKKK
ASSAY_PROCEDURE: GPCRScan assay: inhibition of Sigma 2
Form field: Ki (one value per entry).
RESULT_TYPE: Ki (nM)

SMILES_TEXT: CC(C)CC(=O)N1CCc2nc(-c3ccc(Br)cc3)nc(N(C)Cc3ccccc3)c2C1
TARGET_SYSTEM: Sigma intracellular receptor 2 (Homo sapiens, UniProt Q5BJF2)
RESULT_TYPE: Ki
OBSERVED_VALUE: 708
--
SMILES_TEXT: COCCOc1nc(-c2ccc(Cl)nc2)nc2c1CN(C(=O)c1ncn3ccccc13)CC2
TARGET_SYSTEM: Sigma intracellular receptor 2 (Homo sapiens, UniProt Q5BJF2)
RESULT_TYPE: Ki
OBSERVED_VALUE: 3350

----------
TARGET_SYSTEM: 5-hydroxytryptamine receptor 7 (Homo sapiens, UniProt P34969)
Sequence (P34969 whole entry): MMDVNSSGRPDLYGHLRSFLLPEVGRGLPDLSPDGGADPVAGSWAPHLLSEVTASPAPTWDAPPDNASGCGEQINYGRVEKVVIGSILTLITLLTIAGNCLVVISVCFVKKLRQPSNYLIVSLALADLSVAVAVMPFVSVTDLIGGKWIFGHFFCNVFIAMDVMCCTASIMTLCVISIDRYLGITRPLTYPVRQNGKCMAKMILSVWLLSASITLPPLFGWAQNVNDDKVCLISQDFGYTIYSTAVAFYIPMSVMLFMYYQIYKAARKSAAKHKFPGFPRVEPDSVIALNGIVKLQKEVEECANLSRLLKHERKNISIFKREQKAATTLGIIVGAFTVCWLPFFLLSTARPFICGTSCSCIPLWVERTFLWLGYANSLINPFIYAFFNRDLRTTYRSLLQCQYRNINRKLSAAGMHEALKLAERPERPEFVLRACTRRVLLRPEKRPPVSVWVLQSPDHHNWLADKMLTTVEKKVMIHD

SMILES_TEXT: CC(C)CC(=O)N1CCc2nc(-c3ccc(Br)cc3)nc(N(C)Cc3ccccc3)c2C1
READOUT_UNITS: nM
Ki: 578

----------
TARGET_SYSTEM: cGMP-specific 3',5'-cyclic phosphodiesterase (Homo sapiens)
ASSAY_PROCEDURE: Biochemical assay (PDE5A)

COMPOUND: COCCOc1nc(-c2ccc(Cl)nc2)nc2c1CN(C(=O)c1ncn3ccccc13)CC2 [THPP-1]
READOUT_UNITS: µM
Ki: 0.116

----------
TARGET_SYSTEM: Monoamine oxidase A (MAO-A) (Homo sapiens)
Sequence (P21397 whole entry): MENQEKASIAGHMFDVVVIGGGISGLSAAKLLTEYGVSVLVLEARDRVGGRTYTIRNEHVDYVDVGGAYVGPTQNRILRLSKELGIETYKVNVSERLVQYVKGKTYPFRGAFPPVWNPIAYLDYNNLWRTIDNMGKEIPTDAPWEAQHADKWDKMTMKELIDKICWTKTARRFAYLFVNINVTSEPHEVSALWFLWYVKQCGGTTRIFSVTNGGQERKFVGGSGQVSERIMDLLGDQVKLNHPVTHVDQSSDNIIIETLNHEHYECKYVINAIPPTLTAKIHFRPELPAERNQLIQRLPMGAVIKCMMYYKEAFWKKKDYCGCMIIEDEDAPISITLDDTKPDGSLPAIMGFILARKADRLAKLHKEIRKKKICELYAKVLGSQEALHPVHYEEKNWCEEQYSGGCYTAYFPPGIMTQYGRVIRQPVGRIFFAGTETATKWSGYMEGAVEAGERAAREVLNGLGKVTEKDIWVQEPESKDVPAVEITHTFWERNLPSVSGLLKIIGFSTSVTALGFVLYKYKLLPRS
ASSAY_PROCEDURE: Inhibition of Monoamine Oxidase MAO-A at compound concentration of 10.0 uM in the Eurofins-Panlabs enzyme assay (Eurofins_assay_140010)
Set-up: substrate with concentration 50 uM Kynuramine, incubation time 60 min, incubation temperature 37 C
CONDITION_DETAILS: recombinant human MAO-A expressed in insect Hi5 cells, probe kynuramine, compound concentration 10 uM

SMILES_TEXT: COCCOc1nc(-c2ccc(Cl)nc2)nc2c1CN(C(=O)c1ncn3ccccc13)CC2
inhibition at 60 min, 10 µM: 42% (not active)

----------
TARGET_SYSTEM: Rod cGMP-specific 3',5'-cyclic phosphodiesterase subunit alpha (Homo sapiens, UniProt P16499)
Sequence (P16499 whole entry): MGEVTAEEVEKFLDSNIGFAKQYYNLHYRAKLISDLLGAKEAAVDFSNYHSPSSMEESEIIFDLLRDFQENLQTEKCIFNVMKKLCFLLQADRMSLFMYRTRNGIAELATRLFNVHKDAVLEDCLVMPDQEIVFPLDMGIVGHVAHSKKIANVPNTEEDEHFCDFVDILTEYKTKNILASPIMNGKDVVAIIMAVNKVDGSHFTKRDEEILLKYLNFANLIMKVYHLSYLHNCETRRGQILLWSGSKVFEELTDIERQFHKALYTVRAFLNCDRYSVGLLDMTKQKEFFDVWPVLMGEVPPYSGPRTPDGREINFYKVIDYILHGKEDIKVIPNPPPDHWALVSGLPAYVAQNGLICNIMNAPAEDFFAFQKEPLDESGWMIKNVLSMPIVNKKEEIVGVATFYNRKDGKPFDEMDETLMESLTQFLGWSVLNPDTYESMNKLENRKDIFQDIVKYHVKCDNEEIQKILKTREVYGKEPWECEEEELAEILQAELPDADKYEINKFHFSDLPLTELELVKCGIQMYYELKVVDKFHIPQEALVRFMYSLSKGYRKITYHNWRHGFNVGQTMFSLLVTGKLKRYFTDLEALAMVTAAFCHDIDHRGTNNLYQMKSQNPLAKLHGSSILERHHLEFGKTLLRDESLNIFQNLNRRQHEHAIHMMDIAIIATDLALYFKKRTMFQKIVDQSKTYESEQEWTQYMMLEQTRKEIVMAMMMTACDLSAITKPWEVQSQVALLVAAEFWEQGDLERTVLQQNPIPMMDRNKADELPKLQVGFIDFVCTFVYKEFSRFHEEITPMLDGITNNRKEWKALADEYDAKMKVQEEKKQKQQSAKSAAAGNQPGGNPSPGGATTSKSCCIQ
ASSAY_PROCEDURE: Biochemical assay (PDE6A)
pKi: −log10 of the molar value.

COMPOUND: COCCOc1nc(-c2ccc(Cl)nc2)nc2c1CN(C(=O)c1ncn3ccccc13)CC2 [THPP-1]
pKi: 7.36

----------
TARGET_SYSTEM: UniProt P27338
Sequence (P27338 whole entry): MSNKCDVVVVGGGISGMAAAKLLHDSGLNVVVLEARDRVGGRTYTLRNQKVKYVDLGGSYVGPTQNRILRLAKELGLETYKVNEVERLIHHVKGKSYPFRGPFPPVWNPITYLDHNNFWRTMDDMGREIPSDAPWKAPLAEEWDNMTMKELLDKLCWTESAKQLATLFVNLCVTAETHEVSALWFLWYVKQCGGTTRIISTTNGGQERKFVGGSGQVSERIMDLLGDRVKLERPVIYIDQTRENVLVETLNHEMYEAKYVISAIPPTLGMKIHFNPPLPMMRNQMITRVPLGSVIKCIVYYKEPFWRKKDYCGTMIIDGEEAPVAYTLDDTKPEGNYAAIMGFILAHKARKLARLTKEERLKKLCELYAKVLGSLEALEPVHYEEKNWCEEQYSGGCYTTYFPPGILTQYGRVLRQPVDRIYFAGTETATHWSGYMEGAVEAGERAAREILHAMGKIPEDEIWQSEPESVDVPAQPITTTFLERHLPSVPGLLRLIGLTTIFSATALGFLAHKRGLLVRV
ASSAY_PROCEDURE: Inhibition of Monoamine Oxidase MAO-B at compound concentration of 10.0 uM in the Eurofins-Panlabs enzyme assay (Eurofins_assay_140120)
Set-up: substrate with concentration 50 uM Kynuramine, incubation time 60 min, incubation temperature 37 C
CONDITION_DETAILS: recombinant human MAO-B expressed in insect Hi5 cells, probe kynuramine, compound concentration 10 uM
RESULT_TYPE: inhibition at 60 min, 10 µM

SMILES_TEXT: COCCOc1nc(-c2ccc(Cl)nc2)nc2c1CN(C(=O)c1ncn3ccccc13)CC2
OBSERVED_VALUE: 32% (not active)
